# TARGET: Syk (Homo sapiens, UniProt P43405)
# Construct: purchased Carna Biosciences
# PROCEDURE TEXT: Syk HTRF assay
# Assay type: biochemical
# PROTOCOL CONDITIONS: IC50 activity level, read-out: Activity Level
pIC50: −log10 of the molar value.
# pIC50 per record follows

Some solved entries appear below for comparison.
| COMPOUND | RECORDED METRIC | MEASUREMENT |
| --- | --- | --- |
| OCCNc1cc(-c2cccc3nc(Nc4ccccc4)nn23)ccn1 [Example 443] | pIC50 | 6.60 to 11.30 |
| CC(Cc1cccc2nc(Nc3ccccc3)nn12)C(N)=O (stereo in doubt) [Example 461] | pIC50 | 5.00 to 6.00 |
| CN(c1ccccc1)c1cccc2nc(Nc3ccccc3)nn12 [Example 472] | pIC50 | 5.00 to 6.00 |
| N[C@H]1CC[C@@H](Oc2cccc3nc(Nc4ccc(C(F)(F)F)cc4)nn23)CC1 [Example 423] | pIC50 | 6.00 to 6.30 |
| Cn1c(=O)[nH]c2cc(Nc3nc4cccc(CC5CCOCC5)n4n3)ccc21 [Example 532] | pIC50 | 6.60 to 11.30 |

IN: # input compound: CC(O)c1nc2ccc(-c3cccc4nc(Nc5ccc(C(F)(F)F)cc5)nn34)cc2[nH]1 (stereo not drawn) [Example 402] ; wanted: its pIC50
OUT: 6.60 to 11.30

IN: Subsequent entry: O=C(N[C@H]1CCCNC1)c1cccc2nc(Nc3ccccc3)nn12 [Example 504]
OUT: 5.00 to 6.00

IN: Subsequent entry: COc1cc(-c2cccc3nc(Nc4ccc5c(c4)NC(=O)C5(C)C)nn23)ccn1 [Example 559]
OUT: 6.60 to 11.30

IN: Subsequent entry: c1ccc(Nc2nc3cccc(N[C@H]4CCNC4)n3n2)cc1 [Example 475]
OUT: 6.30 to 6.60

###

# TARGET: Syk (Homo sapiens, UniProt P43405)
# Construct: purchased Carna Biosciences
# PROCEDURE TEXT: Syk HTRF assay
# Assay type: biochemical
# PROTOCOL CONDITIONS: activity levels A-D, read-out: Activity Level (IC50 in the Syk HTRF assay)
pIC50: −log10 of the molar value.
RECORDED METRIC: pIC50

| MOLECULE | TARGET | RECORDED METRIC | MEASUREMENT |
| --- | --- | --- | --- |
| OCC1CCN(c2cccc3nc(Nc4ccc(C(F)(F)F)cc4)nn23)CC1 [Example 346] | Syk (Homo sapiens, UniProt P43405) | pIC50 | 5.00 to 6.00 |

IN: # input molecule: O[C@H]1CC[C@@H](Nc2cccc3nc(Nc4cccnc4F)nn23)CC1 [Example 322] ; wanted: its pIC50
OUT: 5.00 to 6.00

IN: Subsequent entry: CNC(=O)c1ccc(Nc2nc3cccc(CC4CCNC4)n3n2)cc1 (stereo not shown) [Example 267]
OUT: 6.00 to 6.30

IN: Subsequent entry: Cc1n[nH]c2cc(Nc3nc4cccc(CN5CCN(c6ccc7c(C)n[nH]c7c6)C(=O)C5)n4n3)ccc12 [Example 234]
OUT: 5.00 to 6.00

###

# TARGET: Syk (Homo sapiens, UniProt P43405)
# Construct: purchased Carna Biosciences
# PROCEDURE TEXT: Syk HTRF assay
# Assay type: biochemical
# PROTOCOL CONDITIONS: activity levels A-D, read-out: Activity Level (IC50 in the Syk HTRF assay)
# IC50 per record follows

| COMPOUND | IC50 |
| --- | --- |
| Cc1nn(C)c2cc(Nc3nc4cccc(N[C@H]5CC[C@@H](O)CC5)n4n3)ccc12 | 0.005 to 250 nM |
| CNC(=O)c1ccc(Nc2nc3cccc(O[C@H]4CC[C@@H](N)CC4)n3n2)cc1 | 1000 to 10000 nM |
| CC1C(=O)NCCN1Cc1cccc2nc(Nc3ccc(C(F)(F)F)cc3)nn12 (centres unmarked) [Example 281] | 0.005 to 250 nM |
| Cn1ncc2cc(Nc3nc4cccc(N[C@H]5CC[C@@H](O)CC5)n4n3)ccc21 | 0.005 to 250 nM |
| CC(C)(O)c1ccc(Nc2nc3cccc(N[C@H]4CC[C@@H](O)CC4)n3n2)cn1 | 1000 to 10000 nM |

IN: # input compound: Cc1n[nH]c2cc(Nc3nc4cccc(N[C@H]5CCCC5O)n4n3)ccc12 (stereo in doubt) ; wanted: its IC50
OUT: 0.005 to 250 nM

IN: Subsequent entry: OC1CCCN(Cc2cccc3nc(Nc4ccc(C(F)(F)F)cc4)nn23)C1 (stereo in doubt)
OUT: 1000 to 10000 nM

IN: Subsequent entry: "FC(F)(F)c1ccc(Nc2nc3cccc(OC4CCNCC4)n3n2)cc1"
OUT: 1000 to 10000 nM

IN: Subsequent entry: "O[C@H]1CC[C@H](CNc2cccc3nc(Nc4ccc(C(F)(F)F)cc4)nn23)CC1"
OUT: 1000 to 10000 nM

IN: Subsequent entry: "O[C@H]1CC[C@@H](Nc2cccc3nc(Nc4ccc(Cl)cc4)nn23)CC1"
OUT: 0.005 to 250 nM

IN: Subsequent entry: "CC1(C)C(=O)Nc2cc(Nc3nc4cccc(N[C@H]5CC[C@@H](O)CC5)n4n3)ccc21"
OUT: 0.005 to 250 nM

IN: Subsequent entry: "COc1cccc(Nc2nc3cccc(N[C@H]4CC[C@@H](O)CC4)n3n2)c1"
OUT: 0.005 to 250 nM

IN: Subsequent entry: "Cc1c2ccc(Nc3nc4cccc(N[C@H]5CC[C@@H](O)CC5)n4n3)cc2nn1C"
OUT: 0.005 to 250 nM

IN: Subsequent entry: "Cc1n[nH]c2cc(Nc3nc4cccc(CC5CCOCC5)n4n3)ccc12"
OUT: 0.005 to 250 nM

IN: Subsequent entry: O[C@@H]1CCC[C@@H](Nc2cccc3nc(Nc4ccc(C(F)(F)F)cc4)nn23)C1 (single isomer, unassigned; enantiomer 2) [Example 224]
OUT: 1000 to 10000 nM

IN: Subsequent entry: CC(C)(O)[C@H]1CC[C@H](Nc2cccc3nc(Nc4ccc(C(F)(F)F)cc4)nn23)CC1 (stereo in doubt)
OUT: 1000 to 10000 nM

IN: Subsequent entry: "FC(F)(F)c1ccc(Nc2nc3cccc(OC[C@@H]4CCCN4)n3n2)cc1"
OUT: 1000 to 10000 nM
